assay: Measurement of the solubility (PBS pH 7.4 vs methanol, LC/MS); type: physicochemical; conditions: pH 7.4, aqueous buffer, kinetic from dmso stock
Mark not met for solubility at 24 h values under 40 µg/mL, and met for everything at or above.

structureString	labelClass
COCC(=O)N1CCC(c2nc(-c3cccs3)no2)CC1	met
O=C(CC1CC1)N1CCC(c2nc(-c3cccs3)no2)CC1	met
O=C(NC1CC1)N1CCC(c2nc(-c3cccs3)no2)CC1	met
O=C(Cc1cccs1)N1CCC(c2nc(-c3cccs3)no2)CC1	not met
C=CCCC(=O)N1CCC(c2nc(-c3cccs3)no2)CC1	met
[N-]=[N+]=NCC(=O)N1CCC(c2nc(-c3ccc(F)cc3)no2)CC1	not met
[N-]=[N+]=NCC(=O)N1CCC(c2nc(-c3ccc4c(c3)OCO4)no2)CC1	met
O=C(c1ccccc1)N1CCC(c2nc(-c3cccs3)no2)CC1	not met
O=C(O)CCC(=O)N1CCC(c2nc(-c3cccs3)no2)CC1	met
